- Tested on: HEK293
- TEST: Cytotoxic Profiling of Annotated Libraries Using Quantitative High-Throughput Screening (AID 1296008); also: % is scaled to controls: 0 for no effect and ±100 for the full control effect; nearly all actives have a fitted effect of over 60% in size
- STUDY CONDITIONS: Five cell lines viability, CellTiter-Glo ATP luminescence, 48-72 h; active compounds read low
Results filed as inconclusive are left out. Calls of active or inactive are those of the source. Calls follow the shape of the dose curve; as a rule, active = well fitted inhibition curve with a large enough effect; inconclusive = small, poorly fitted or top-dose-only effect; inactive = flat fitted curve, though single readings scatter.
MEASUREMENT TYPE: max response

1. CC1=CCC[C@@H]2[C@](CCc3ccoc3)(C(=O)O)[C@H](C)CC[C@@]12C : -3.43% (inactive)
2. CC1(C)CC[C@]2(C(=O)O)CC[C@]3(C)C(=CCC4[C@@]5(C)CC[C@H](O)C(C)(C)C5CC[C@]43C)C2C1 (stereo partly drawn) : -9.46% (inactive)
3. CCC(C)(C)C1CCc2c(sc(NC(=O)c3ccc(Br)cc3)c2C#N)C1 (stereo not drawn) : 2.37% (inactive)
4. CCC(C)/C=C(C)/C=C/C1=CC2=C(Cl)C(=O)C(C)(OC(C)=O)C(=O)C2=CN1C(CC(=O)O)C(=O)O (stereo not drawn) : 4.62% (inactive)
5. COC(=O)C1=COC(O[C@@H]2O[C@H](CO)[C@@H](O)[C@H](O)[C@H]2O)[C@@H]2[C@@](C)(O)[C@@H](OC(=O)/C=C/c3ccccc3)C[C@]12O (stereo partly drawn) : -1.35% (inactive)
6. CCNC(=O)C1CC(F)(c2ccc(CN3CCCC3)c(F)c2)C1 (stereo not drawn) : -0.849% (inactive)
7. COc1cc(CO)cc(OC)c1O[C@@H]1O[C@H](CO)[C@@H](O)[C@H](O)[C@H]1O : -2.97% (inactive)
8. Cn1c2ccc(NC(=O)c3ccccc3)cc2c(=O)n2nc(C(=O)O)cc12 : -1.26% (inactive)
